assay: in vitro; format: cell-based; settings: Wistar albino, rat

[
  {
    "Compound": "O=c1[nH]cc(F)c(=O)[nH]1 [5-FU, 5-fluorouracil, reference compound]",
    "IC50 (µg/mL)": 0.15
  }
]
